tested on: INS-1E rat beta cells, no cytokines, CellTiter-Glo ATP, 48 h; assay: cytokine-free beta-cell viability effect – INS-1E rat cells, ATP luminescence, cherry pick, counter-screen for beta-cell apoptosis protection project, dose response (AID 463229)
Measurement name: AC50

CCN1C/C(=C/c2cccc([N+](=O)[O-])c2)C(=O)/C(=C/c2cccc([N+](=O)[O-])c2)C1; 2.39 µM

Please report AC50 for every entry that follows.
1. COc1ccc2c(c1)C(=O)[C@H](O)[C@@H](c1ccc(OC)c(Br)c1)O2
2. C#CCOCCOCCOCCNc1nc(N2CCN(C(=O)CCCCCCCCCCNC(=O)Cn3cc(C[C@@H](C)O)nn3)CC2)nc(N2CCN(C(=O)CCCCCCCCCCNC(=O)[C@@H]([C@H](C)CC)n3cc(CCCCCN)nn3)CC2)n1
3. COc1cc2c(cc1OC)-c1c(OC)c(OC)c(OC)c3ccnc(c13)C2=O
4. CN(C)C1=NC[C@H](Cc2ccccc2)N1CCCC1CCCCC1
5. O=C(N/N=C/c1cc(Cl)ccc1O)c1ccccc1Br
6. CCCCCCCCNc1ncnc2ccccc12

[reply]
7.97 µM
7.83 µM
6.65 µM
13.6 µM
8.9 µM
0.384 µM

Please report AC50 for every entry that follows.
1. Cn1nc(CC(=O)Nc2ccc3c(c2)OCCO3)c2ccccc2c1=O
2. C=CCn1cc(/C=C/c2cc[n+](C)cc2)c2ccccc21
3. CCN1CCN(c2ccc(S(=O)(=O)N3CCCCC3)cc2NC(=O)c2ccc([N+](=O)[O-])o2)CC1
4. Oc1ccc(CNc2ccccc2)c2cccnc12
5. CCOC(=O)C1CCN(Cc2ccc(O)c3ncccc23)CC1

[reply]
["5.63 µM", "4.63 µM", "8.1 µM", "22.8 µM", "12.5 µM"]
